Exercise: for every item that follows, state its recorded Activity.
Tested on: T98G
Assay Notes: Induction of apoptosis in human T98G cells assessed as early apoptotic cells level incubated for 48 hrs by Annexin V-FITC and PI double staining based flow cytometry (reference value: 1.79%)
Format: functional
Supply the numeric figure in %, leaving out any unit text.

Query Activity on T98G for `O=c1c(-c2c(O)cc3c(c2O)C[C@H](O)[C@H](c2ccc(O)c(O)c2)O3)c(-c2ccc(O)cc2)oc2cc(O)cc(O)c12`
4.11

Please do the same for `O=c1c(-c2c(O)cc3c(c2O)C[C@@H](O)[C@H](c2ccc(O)cc2)O3)c(-c2ccc(O)cc2)oc2cc(O)cc(O)c12` as well.
10.3

Cool, now `O=c1c(-c2c(O)cc3c(c2O)C[C@@H](O)[C@@H](c2ccc(O)c(O)c2)O3)c(-c2ccc(O)cc2)oc2cc(O)cc(O)c12`
17.8

Would you mind doing `CC(=O)O[C@H]1C(=O)[C@@]2(C)[C@H]([C@H](OC(=O)c3ccccc3)[C@]3(O)C[C@H](OC(=O)[C@H](O)[C@@H](NC(=O)c4ccccc4)c4ccccc4)C(C)=C1C3(C)C)[C@]1(OC(C)=O)CO[C@@H]1C[C@@H]2O` as well?
15

###

System: T98G
Assay Notes: Induction of apoptosis in human T98G cells assessed as necrotic cells level incubated for 48 hrs by Annexin V-FITC and PI double staining based flow cytometry (reference value: 1.66%)
Type: functional
Readout Label: Activity

# get_value(readout= Activity, system= T98G) for `O=c1c(-c2c(O)cc3c(c2O)C[C@@H](O)[C@@H](c2ccc(O)c(O)c2)O3)c(-c2ccc(O)cc2)oc2cc(O)cc(O)c12`
1.15%

What do you get for CC(=O)O[C@H]1C(=O)[C@@]2(C)[C@H]([C@H](OC(=O)c3ccccc3)[C@]3(O)C[C@H](OC(=O)[C@H](O)[C@@H](NC(=O)c4ccccc4)c4ccccc4)C(C)=C1C3(C)C)[C@]1(OC(C)=O)CO[C@@H]1C[C@@H]2O [PACLITAXEL] ?
3.23%

Another compound to check: `O=c1c(-c2c(O)cc3c(c2O)C[C@H](O)[C@H](c2ccc(O)c(O)c2)O3)c(-c2ccc(O)cc2)oc2cc(O)cc(O)c12`
1.55%

Okay, and `O=c1c(-c2c(O)cc3c(c2O)C[C@@H](O)[C@H](c2ccc(O)cc2)O3)c(-c2ccc(O)cc2)oc2cc(O)cc(O)c12` ?
1.36%

###

Tested on: U-87 MG
Assay Notes: Cytotoxicity against human U87 cells assessed as reduction in cell viability incubated for 24 hrs by CCK8 assay
Assay type: functional, cell-based, U-87MG ATCC
Readout Label: IC50 (µM)
Just the number in µM, nothing appended.

Would you mind telling me what IC50 value was observed for `CC(=O)O[C@H]1C(=O)[C@@]2(C)[C@H]([C@H](OC(=O)c3ccccc3)[C@]3(O)C[C@H](OC(=O)[C@H](O)[C@@H](NC(=O)c4ccccc4)c4ccccc4)C(C)=C1C3(C)C)[C@]1(OC(C)=O)CO[C@@H]1C[C@@H]2O` ?
4.67

Check `O=c1c(-c2c(O)cc3c(c2O)C[C@@H](O)[C@@H](c2ccc(O)c(O)c2)O3)c(-c2ccc(O)cc2)oc2cc(O)cc(O)c12` too.
32.5

Could you do the same for `O=c1c(-c2c(O)cc3c(c2O)C[C@@H](O)[C@H](c2ccc(O)cc2)O3)c(-c2ccc(O)cc2)oc2cc(O)cc(O)c12` , please?
35.7

Now this one: `O=c1c(-c2c(O)cc3c(c2O)C[C@H](O)[C@H](c2ccc(O)c(O)c2)O3)c(-c2ccc(O)cc2)oc2cc(O)cc(O)c12`
88.4
